Values compiled from ChEMBL document CHEMBL1133949.

Tested on: PC-3
test_protocol: Cytotoxicity of compound against human prostate adenocarcinoma (PC3) using SRB assay
Type: functional, cell-based, Prostate gland
Catalogue of EC50 values

Here are 4 molecules together with their reported answers.
molecule: C=C(COC)[C@@H]1CC[C@]2(C(=O)O)CC[C@]3(C)[C@H](CC[C@@H]4[C@@]5(C)CC[C@H](O)C(C)(C)[C@@H]5CC[C@]43C)[C@@H]12
target_of_assay: PC-3
result_type: EC50
experimental_value: > 9.4 µM
--
molecule: C=C(C)[C@@H]1CC[C@]2(C(=O)O)CC[C@]3(C)[C@H](CC[C@@H]4[C@@]5(C)CC[C@H](OC(C)=O)C(C)(C)[C@@H]5CC[C@]43C)[C@@H]12
target_of_assay: PC-3
result_type: EC50
experimental_value: > 7.2 µM
--
molecule: CO/N=C(/C)[C@@H]1CC[C@]2(C(=O)O)CC[C@]3(C)[C@H](CC[C@@H]4[C@@]5(C)CC[C@H](O)C(C)(C)[C@@H]5CC[C@]43C)[C@@H]12
target_of_assay: PC-3
result_type: EC50
experimental_value: > 50 µM
--
molecule: CC(C)[C@@H]1CC[C@]2(C(=O)O)CC[C@]3(C)C(CCC4[C@@]5(C)CC[C@H](O)C(C)(C)C5CC[C@]43C)C12 (some centres undefined) [DIHYDROBETULINIC ACID]
target_of_assay: PC-3
result_type: EC50
experimental_value: > 2.2 µM

Q) Would you kindly share the measured EC50 for CC(=O)[C@@H]1CC[C@]2(C(=O)O)CC[C@]3(C)[C@H](CC[C@@H]4[C@@]5(C)CC[C@H](O)C(C)(C)[C@@H]5CC[C@]43C)[C@@H]12 [PLATANIC ACID] ?
A) > 50 µM

Q) Would you kindly share the measured EC50 for CC(O)[C@@H]1CC[C@]2(C(=O)O)CC[C@]3(C)[C@H](CC[C@@H]4[C@@]5(C)CC[C@H](O)C(C)(C)[C@@H]5CC[C@]43C)[C@@H]12 (some centres undefined) ?
A) > 50 µM

Q) Would you kindly share the measured EC50 for C/C(=N/O)[C@@H]1CC[C@]2(C(=O)O)CC[C@]3(C)[C@H](CC[C@@H]4[C@@]5(C)CC[C@H](O)C(C)(C)[C@@H]5CC[C@]43C)[C@@H]12 ?
A) > 50 µM

###

System: PC-3
test_protocol: Cytotoxicity of compound against human prostate adenocarcinoma (PC3) using SRB assay
Assay type: functional, cell-based, Prostate gland
result_type: EC50

Here are 6 compounds together with their reported answers.
compound: C=C(CNOC)[C@@H]1CC[C@]2(C(=O)O)CC[C@]3(C)[C@H](CC[C@@H]4[C@@]5(C)CC[C@H](O)C(C)(C)[C@@H]5CC[C@]43C)[C@@H]12
experimental_value: > 50 µM
--
compound: C=C(C)[C@@H]1CC[C@]2(C(=O)O)CC[C@]3(C)[C@H](CC[C@@H]4[C@@]5(C)CC[C@H](O)C(C)(C)[C@@H]5CC[C@]43C)[C@@H]12
experimental_value: 1.9 µM
--
compound: CO/N=C1\CC[C@]2(C)[C@H]3CC[C@@H]4[C@H]5[C@H](C(C)C)CC[C@]5(C(=O)O)CC[C@@]4(C)[C@]3(C)CC[C@H]2C1(C)C
experimental_value: > 16.4 µM
--
compound: C=C(CO)[C@@H]1CC[C@]2(C(=O)O)CC[C@]3(C)[C@H](CC[C@@H]4[C@@]5(C)CC[C@H](O)C(C)(C)[C@@H]5CC[C@]43C)[C@@H]12
experimental_value: > 8.4 µM
--
compound: CC(C)[C@@H]1CC[C@]2(C(=O)O)CC[C@]3(C)[C@H](CC[C@@H]4[C@@]5(C)CCC(=O)C(C)(C)[C@@H]5CC[C@]43C)[C@@H]12 [DIHYDROBETULONIC ACID]
experimental_value: > 1.3 µM
--
compound: C=C(CNO)[C@@H]1CC[C@]2(C(=O)O)CC[C@]3(C)[C@H](CC[C@@H]4[C@@]5(C)CC[C@H](O)C(C)(C)[C@@H]5CC[C@]43C)[C@@H]12
experimental_value: > 50 µM

Q) Would you kindly share the measured EC50 for CC(C)[C@@H]1CC[C@]2(C(=O)O)CC[C@]3(C)[C@H](CC[C@@H]4[C@@]5(C)CC/C(=N\O)C(C)(C)[C@@H]5CC[C@]43C)[C@@H]12 ?
A) > 3 µM
